Test system: TK-10 renal
protocol_text: NCI tumour cell line growth inhibition, 48 h
Reported GI50 is given for each of the following molecules.

# count of solved cases: 3
>  <molecule>
CC(C)NCCCCCNc1cc(O)cc2cccnc12

>  <assay_system>
TK-10 renal

>  <GI50>
> 100 µM

$$$$
>  <molecule>
O=C(OC(CNc1c(C(=O)c2ccccc2)c(=O)n(Cc2ccccc2)c(=O)n1Cc1ccccc1)CN1CCCCC1)c1ccccc1 (stereo not given)

>  <assay_system>
TK-10 renal

>  <GI50>
23.6 µM

$$$$
>  <molecule>
COc1cc([N+](=O)[O-])c(OC)cc1-c1nc2n(c1/C(N)=N/C(=N)N)CCS2

>  <assay_system>
TK-10 renal

>  <GI50>
20.3 µM

$$$$

Request: GI50, test system TK-10 renal, entry Nc1ncnc2c1c(C(=O)NO)cn2C1OC(CO)C(O)C1O (stereo not given)
0.572 µM

Request: GI50, test system TK-10 renal, entry CCCCC/C=C\C/C=C/CCCCCCCCNC(=O)Nc1ccc([N+](=O)[O-])cc1
> 100 µM

---

Reported TGI is given for each of the following compounds.
Test system: NCI-H522 lung
protocol_text: NCI tumour cell line growth inhibition, 48 h

# count of solved cases: 6
>  <compound>
Nc1nc(Sc2ccc([N+](=O)[O-])cn2)c2[nH]cnc2n1

>  <quantity_measured>
TGI

>  <value>
40.2 µM

$$$$
>  <compound>
COc1cc(O)c2c(c1O)C(=O)c1cc(C)ncc1C2=O

>  <quantity_measured>
TGI

>  <value>
> 50 µM

$$$$
>  <compound>
Nc1ccc(-c2nc3ccccc3s2)cc1I

>  <quantity_measured>
TGI

>  <value>
> 100 µM

$$$$
>  <compound>
CSc1n[nH]c2n[nH]c(C)c12

>  <quantity_measured>
TGI

>  <value>
> 100 µM

$$$$
>  <compound>
Cc1[nH]c2ccccc2c1C1=CC(=O)C=CC1=O

>  <quantity_measured>
TGI

>  <value>
3.28 µM

$$$$
>  <compound>
COC(=O)CCSC1=CC(=O)c2nc3ccccc3c3ccnc1c23

>  <quantity_measured>
TGI

>  <value>
3.74 µM

$$$$

Given the compound CCCC(=O)Nc1ncnc2c1ncn2C1OC2COP(=O)(O)OC2C1OC(=O)CCC (stereo not drawn) , what is its reported TGI?
> 1000 µM

Given the compound CC(C)N(C(=O)C12C3C4C5C3C1(C#N)C5C42)C(C)C (stereo not drawn) , what is its reported TGI?
> 100 µM

Given the compound COC(=O)C1=C(C)N(NC(=O)c2cccc(Cl)c2)C(C)(O)C12CCOC2=O (stereo not drawn) , what is its reported TGI?
> 100 µM

Given the compound CNc1ccc(C(=O)CC(O)CCC(C)C2OC(=O)CC(O)CC(=O)CC(O)CC(O)CC(O)CC(O)CC3(O)CC(O)C(C(=O)NCCc4ccccn4)C(CC(OC4OC(C)C(O)C(N)C4O)/C=C/C=C/C=C/C=C\C=C/C=C/C=C/C2C)O3)cc1 (stereo not drawn) , what is its reported TGI?
> 50 µM

Given the compound Cc1nc2ccc(S(=O)(=O)Nc3ccccc3Cl)cc2c(=O)n1NC(=O)CNc1ccccc1Cl , what is its reported TGI?
> 100 µM

Given the compound O=C1C(Cl)=C(Nc2ccccn2)C(=O)c2ccccc21 , what is its reported TGI?
3.69 µM

Given the compound CNC(=O)c1c(NC(=O)c2ccc(C(C)C)cc2)sc2c1CCC(=O)C2 , what is its reported TGI?
1.04 µM

Given the compound CC(=O)O[C@H]1CC[C@@]2(C)C(=CC[C@H]3[C@@H]4C/C(=C\c5ccncc5)[C@H](OC(C)=O)[C@@]4(C)CC[C@@H]32)C1 , what is its reported TGI?
18.5 µM

Given the compound CCN1C(=O)C(N=[N+]=[N-])(c2ccccc2)C(=O)c2ccccc21 (stereo not drawn) , what is its reported TGI?
> 100 µM

Given the compound C=CCCC(O)c1ccc(CCCCCCCCCCC)o1 (stereo not drawn) , what is its reported TGI?
32.8 µM

Given the compound Cc1ccc(Nc2cc(=O)[nH]c(=O)[nH]2)cc1CS , what is its reported TGI?
> 100 µM

Given the compound CCOC(=O)NC(C(C(=O)OCC)C(=O)OCC)(C(F)(F)F)C(F)(F)F , what is its reported TGI?
> 100 µM

Numbers sourced from PubChem BioAssay (NCI).
